Values compiled from patent US20220356228A1.

Biological target: T1, JCV major capsid protein VP1, wild type (John Cunningham virus (JCV), UniProt P03089 1-354)
T1 construct: also called WT VP1; wild type VP1
Assay: ELISA, plates coated with pseudovirus, purified antibody
Readout: EC50 (µg/mL)
The reply should be a number in µg/mL, with the unit left off.

Task item: Please supply the value of reported EC50 for the item 1A7 (antibody, V domains shown) VH: QVQLVQSGAEVKKPGASVKVSCKASGYTFTFYDINWVRQATGQGLEWMGWMNPNSGNTGYAQNFQGRVTMTRNTSINTAYLELSSLRSEDTAVYYCARKIWVGHTTFDRWGQGTLVTVSS VL: AIQMTQSPSSLSASVGDRVTITCRASQSISGYLNWYQQKPGKAPNLLIYAASNLQSGVPSRFSGSGSGTDFTLTISSLQREDFAPYYCQQTYNIPFTFGGGTKVEIK
Reply: 0.0247
